experimental_system: Cruzipain (Trypanosoma cruzi) (UniProt P25779)
Sequence (P25779 123-467 limits assumed): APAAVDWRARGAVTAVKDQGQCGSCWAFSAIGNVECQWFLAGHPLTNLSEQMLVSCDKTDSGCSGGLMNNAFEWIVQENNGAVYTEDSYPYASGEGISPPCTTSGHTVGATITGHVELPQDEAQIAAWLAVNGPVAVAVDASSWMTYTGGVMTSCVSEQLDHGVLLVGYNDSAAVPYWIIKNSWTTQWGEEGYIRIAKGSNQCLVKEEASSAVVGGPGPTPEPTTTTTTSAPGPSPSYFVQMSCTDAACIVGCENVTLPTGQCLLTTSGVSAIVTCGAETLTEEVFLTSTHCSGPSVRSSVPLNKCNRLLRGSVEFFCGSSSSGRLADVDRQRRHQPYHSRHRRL
method: qHTS Assay for Promiscuous and Specific Inhibitors of Cruzain (without detergent); also: nearly all actives have a fitted effect of over 40% in size; also: potency is read from the fitted curve at half-maximal effect
experimental_conditions: purified cruzain, Z-FR-AMC fluorescence, no detergent
About 4,500 (2.2%) of roughly 200,000 compounds were called active. Roughly 12% stayed inconclusive and do not appear here. The sample as a whole holds a higher share of actives than the screen did.
parameter_measured: Potency

Consider the reported Potency for these molecules:
1) CC1Cc2ccccc2N1C(=O)c1cc2sccc2n1Cc1ccccc1 (stereo not drawn); 25.1 µM (active)
2) Cc1ccc(-c2nn(-c3ccccc3)cc2/C=N/NC(=O)c2ccc3c(c2)OCO3)cc1; 25.1 µM (active)
3) O=C(NC1CCc2ccccc21)C12CN(Cc3ccccc3)CC1C(c1cccc([N+](=O)[O-])c1)=NO2 (stereo not drawn); 12.6 µM (active)

Please go through the list and note Potency for each molecule.
1. Cc1ccc(C(=O)COC(=O)C(Cc2c[nH]c3ccccc23)NC(=O)c2ccc(Br)cc2)cc1 (stereo not drawn)
2. Cc1cccc(NC(=O)c2sc(-c3ccccc3)nc2-c2ccc([N+](=O)[O-])cc2)c1
3. Oc1ccc(O)c2c(O)cccc12
4. N/C(=N\c1nc2ccccc2o1)NC(=O)C(Cc1ccccc1)N1C(=O)c2ccccc2C1=O (stereo not drawn)
5. COc1ccc(S(=O)(=O)Nc2ccc3c(c2)OCO3)cc1Cl

A:
12.6 µM (active)
20 µM (active)
12.6 µM (active)
25.1 µM (active)
15.8 µM (active)

###

experimental_system: Cruzipain (Trypanosoma cruzi)
method: qHTS Assay for Promiscuous and Specific Inhibitors of Cruzain (without detergent); also: nearly all actives have a fitted effect of over 40% in size;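 as to max response, negative = inhibition: plate controls were enzyme without inhibitor for no effect and buffer without enzyme for full effect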
experimental_conditions: purified cruzain, Z-FR-AMC fluorescence, no detergent
Method: Cruzain is a cysteine protease from the tropical parasite Trypanosoma cruzi. […] Cruzain was assayed by the use of fluorogenic coumarin-based substrate Z-FR-AMC: proteolytic cleavage releases AMC, whose fluorescence is measured at 360 nm excitation and 450 nm emission. […]
Hit rate of the full screen: of about 200,000 compounds, about 4,500 (2.2%) were called active. Another 12% or so got no clear call; they are omitted. Shown is part of a subset that was picked to be rich in actives.
Please go through the items and note down their max response, negative = inhibition.
Numbers only, in %.

Examples from the recorded data:
1. CCCS(=O)(=O)c1ncc(Cl)c(C(=O)Nc2scc(-c3ccccc3)c2C(=O)OCC)n1; -26.6
2. COc1cccc(-n2c(=O)c3c(C)c(C(=O)N(C)C)sc3n(Cc3cccc(C)c3)c2=O)c1; -4.38

Please look at the items below and tell me max response, negative = inhibition for each one, in order.
1. O=C(Cn1nnc(-c2ccccc2)n1)NCc1ccccc1
2. Cc1ccc(S(=O)(=O)c2nc(-c3cccs3)oc2N2CCCCC2)cc1

A:
3.66
3.47

Please go through the list and note max response, negative = inhibition for each compound.
1. COc1ccc(CNC(=O)CCc2c(C)nn(-c3ccc(N4CCCC4)nn3)c2C)cc1
2. Cc1cccc(-n2c(C)cc(/C=N/NC(N)=S)c2C)c1
3. CCOc1ccc(CNC(=O)Cn2cc3c(n2)-c2c(oc(C(=O)N4CCCC4)c2C)CC3)cc1
4. Cc1cc(Cl)ccc1NC(=O)Cc1ccc(NC(=O)N2CCCCc3ccccc32)cc1
5. CCC(C)Nc1oc(-c2ccc(COc3ccc(Cl)cc3)o2)nc1C#N (stereo not drawn)

A:
3.65
-26.1
23.3
8.39
2.48

// for each compound below, give its max response, negative = inhibition
1. COC(=O)c1cn(-c2ccccc2)nc1-c1cccnc1
2. CCOC(=O)N1CCN(C(=O)c2cc3c(ccc4ccccc43)oc2=O)CC1
3. O=C(NC1=NCCS1)[C@H](Cc1ccccc1)N1C(=O)c2ccccc2C1=O
4. Clc1ccc(-c2nnc(SCc3nc4ccccc4s3)o2)cc1

A:
1: 10.9; 2: -18.3; 3: -18.4; 4: -6.5

For the 2 compounds below, give their max response, negative = inhibition values.
1. CCCc1cc(=O)n2[nH]c(NCc3ccc(CC)cc3)nc2n1
2. COc1ccccc1-c1cc(C(=O)N2CCCCC2)no1

A:
-8.1
-9.93

Provide reported max response, negative = inhibition for each item, in the same order as listed.
1. Cc1cc(C)cc(OCc2nnc(SCC(=O)Nc3ccccc3)o2)c1
2. Cc1ccc(-c2nnc(Nc3cccc(Br)c3)c3ccccc23)cc1S(=O)(=O)NCC1CCCO1 (stereo not drawn)
3. Nc1ccc(C(=O)OCC(=O)NC2CCCc3ccccc32)cc1[N+](=O)[O-] (stereo not drawn)
4. C/C(=N\NC(=O)c1nc(C)cc(C)n1)c1ccccc1
5. COc1cccc(NC(=O)N2CCN(C(=O)c3nsc4ccccc34)CC2)c1

A:
[4.82, -20.7, -1.06, 4.34, 16.2]

Each of the following entries comes with a recorded value; kindly state max response, negative = inhibition for each.
1. O=S(=O)(Nc1ccc2nc(-c3cccc(Cl)c3)oc2c1)c1ccccc1
2. O=c1cc(CN2CCN(S(=O)(=O)/C=C/c3ccccc3)CC2)c2ccc(O)cc2o1
3. COc1ccc(CNC(=O)CSCc2nc(-c3ccccc3F)oc2C)cc1
4. COc1cc2c(cc1/C=C1/NC(=O)N(c3ccccc3)C1=O)OCO2
5. Cc1ccccc1OCc1nc2c3cnn(-c4ccccc4F)c3ncn2n1

A:
1: 5.84; 2: -11.9; 3: -2.99; 4: -27.8; 5: -7.52

Items follow; give max response, negative = inhibition for each.
1. CCCCOc1ccc(NC(=O)c2cc3c(n(-c4ccc(Cl)cc4)c2=O)CCCC3=O)cc1
2. COc1ccc(C2CC(=O)n3c(nc4ccccc43)S2)cc1OC (stereo not drawn)
3. Clc1ccccc1SCc1nc2ccccc2[nH]1
4. COc1ccc(CNC(=O)c2cc3c(s2)-c2ccccc2OC3)cc1
5. CC(NC(=O)C(=O)NN=C1CCC(C(C)(C)C)CC1)c1ccccc1 (stereo not drawn)

A:
1: 7.21; 2: 0.892; 3: -0.47; 4: 16.2; 5: 14.7

For each of the compounds below, state max response, negative = inhibition.
1. CC(C)NC(=O)CSc1nnc(COc2ccccc2Cl)o1
2. O=C(NCCN1CCOCC1)[C@H](Cc1ccccc1)N1C(=O)c2ccccc2C1=O
3. Cc1ccc(CNC(=O)CSc2c(C)cnc3c2c(=O)n(C)c(=O)n3C)cc1
4. COc1ccccc1N1CCN(C(=O)c2cc(-c3ccc(Br)cc3)on2)CC1
5. O=c1cc(CO)oc(CN2CCC(Cc3ccccc3)CC2)c1O
6. O=C(CSc1ncc(-c2ccccc2)[nH]1)Nc1ccc(F)cc1F
7. CC(C)(C)C1CCC(=NNC(=O)c2ccc(Br)o2)CC1 (stereo not drawn)

A:
1. -5.33
2. -6.89
3. -5.95
4. 16.1
5. -8.62
6. 8.99
7. 6.4
